- Test system: YES
- Construct: gene YES1
- Condition Parameters: concentration: 1 μM, replicates: in singlicate; n = 1;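 note: KINOMEscan kinase panel screen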
Readout Kind: %Inh (%)
# output: bare number, implied unit %

Consider the worked cases shown below.
Compound: Cc1nnc(-c2ccc3ncn(-c4ccc(S(C)=O)cc4)c3c2)o1 (stereo not shown)
Observed Measurement: 7
//
Compound: Cl.c1ccc(Cn2cnc3cc(Nc4ncnc5ccccc45)ccc32)cc1
Observed Measurement: 7
//
Compound: Nc1ncnc2c1ncn2-c1cccc2ccccc12
Observed Measurement: 0
//
Compound: Cc1cccc(-c2nc(Nc3ccc4c(cnn4C)c3)c3ccccc3n2)n1
Observed Measurement: 0

Consider the additional compound presented here.
Entry under test: COc1ccc(-c2cc3c(C)nc(N)nc3n([C@H]3CC[C@H](OCCO)CC3)c2=O)cn1 . Its %Inh was 0

====

- Test system: BRK
- Construct: gene PTK6
- Condition Parameters: concentration: 1 μM, replicates: in singlicate; n = 1
# key: entry, value: %Inh
# output: bare number, implied unit %

Compound: O=C(Nc1n[nH]c2nc(-c3ccccc3)c(Br)cc12)C1CC1 [SB-708998]
Target: BRK
Units Text: %
%Inh: 0

Compound: COc1cc2ncn(-c3cc(OCc4ccncc4Br)c(C(N)=O)s3)c2cc1OC [GW854278]
Target: BRK
Units Text: %
%Inh: 6

Compound: COC(=O)c1c(-c2ccccc2)c2cc(C)ccc2c(=O)n1Cc1ccccc1
Target: BRK
Units Text: %
%Inh: 0

Entry under test: Cn1c(=O)c(F)c(Nc2ccc(I)cc2F)c2c(=O)n(OC[C@H](O)CO)cnc21 . Its %Inh was 2

Entry under test: O=C(Nc1n[nH]c2nc(-c3ccccc3)c(Cl)cc12)C1CC1 [SB-734909] . Its %Inh was 0

====

- Test system: MLCK
- Construct: gene MYLK3
- Condition Parameters: concentration: 1 μM, replicates: in singlicate; n = 1
Readout Kind: %Inh (%)
# output: bare number, implied unit %

Consider the worked cases shown below.
Chemical Smiles: Nc1nc(N)c2nc(-c3ccccc3)[nH]c2n1
Target: MLCK
Units Text: %
%Inh: 0
//
Chemical Smiles: Cn1c(=O)c(F)c(Nc2ccc(I)cc2F)c2c(=O)n(OC[C@H](O)CO)cnc21
Target: MLCK
Units Text: %
%Inh: 0
//
Chemical Smiles: COc1ccc(-n2cnc3c(N)ncnc32)cc1
Target: MLCK
Units Text: %
%Inh: 11
//
Chemical Smiles: CCc1ccc(-c2ccc3c(c2)-c2nn(C)cc2S(=O)(=O)N3C)cc1
Target: MLCK
Units Text: %
%Inh: 28
//
Chemical Smiles: COC(=O)c1c(-c2ccccc2)c2cc(C)ccc2c(=O)n1Cc1ccccc1
Target: MLCK
Units Text: %
%Inh: 0

Entry under test: Cl.c1ccc(Cn2cnc3cc(Nc4ncnc5ccccc45)ccc32)cc1 . Its %Inh was 0

Entry under test: COc1cccc(C2=C(Nc3cccc(C(=O)O)c3)C(=O)NC2=O)c1 . Its %Inh was 0

Entry under test: Cc1ccc(-c2ccc3c(ccc4sc5c(c43)NC[C@@H](C)N=C5N(C)C)n2)cn1 . Its %Inh was 0

====

- Tested on: ACVR1B
- Condition Parameters: concentration: 1 μM, replicates: in singlicate; n = 1
# key: entry, value: %Inh
# output: bare number, implied unit %

Compound: COC(=O)c1c(-c2ccccc2)c2cc(Br)ccc2c(=O)n1Cc1ccc(S(C)(=O)=O)cc1
Target: ACVR1B
%Inh, %: 0
//
Compound: Cc1cc(Nc2nc(-c3cccc(C)n3)nc3ccccc23)ccn1 [GW872411]
Target: ACVR1B
%Inh, %: 73
//
Compound: CCc1nc(-c2cccc(C)c2)c(-c2ccncc2)s1
Target: ACVR1B
%Inh, %: 20

Entry under test: Nc1n[nH]c2ncc(-c3ccccc3)cc12 [SB-517081] . Its %Inh was 0

Entry under test: CCC(=O)c1c(-c2ccccc2)c2cc(Cl)ccc2c(=O)n1Cc1cc(S(C)(=O)=O)n(CCC(C)(C)O)n1 . Its %Inh was 10

Entry under test: Cc1nc(N(C)[C@H]2CN(C(=O)CC#N)CC[C@H]2C)c2cc[nH]c2n1 . Its %Inh was 8
